FYI, the data here is from PubChem BioAssay AID651548.

assaySystem: Histone-lysine N-methyltransferase EZH2 (Homo sapiens) (UniProt Q15910)
Sequence (Q15910 whole entry, looked up): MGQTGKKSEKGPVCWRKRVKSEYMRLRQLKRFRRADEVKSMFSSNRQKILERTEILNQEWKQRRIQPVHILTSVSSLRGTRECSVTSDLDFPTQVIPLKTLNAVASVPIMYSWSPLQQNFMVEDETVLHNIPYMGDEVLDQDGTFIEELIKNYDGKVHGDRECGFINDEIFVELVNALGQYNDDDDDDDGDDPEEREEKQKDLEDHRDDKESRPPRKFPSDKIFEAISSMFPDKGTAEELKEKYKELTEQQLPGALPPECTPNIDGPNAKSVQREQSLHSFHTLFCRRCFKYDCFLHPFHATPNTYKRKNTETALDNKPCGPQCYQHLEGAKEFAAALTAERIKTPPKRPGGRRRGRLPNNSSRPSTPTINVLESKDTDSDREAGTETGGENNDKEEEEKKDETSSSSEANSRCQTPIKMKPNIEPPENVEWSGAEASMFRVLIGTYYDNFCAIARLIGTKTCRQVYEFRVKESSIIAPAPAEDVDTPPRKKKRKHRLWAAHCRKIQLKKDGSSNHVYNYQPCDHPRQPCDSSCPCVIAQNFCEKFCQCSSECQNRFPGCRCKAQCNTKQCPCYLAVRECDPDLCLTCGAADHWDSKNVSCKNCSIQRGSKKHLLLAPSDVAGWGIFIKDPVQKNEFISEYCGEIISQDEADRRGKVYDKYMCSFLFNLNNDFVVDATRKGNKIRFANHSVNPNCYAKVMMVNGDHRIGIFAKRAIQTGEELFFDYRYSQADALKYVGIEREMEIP
experimentalDetails: inhibition of PRC2 H3K27 methylation – biochemical, DELFIA time-resolved fluorescence, single point, primary screen (AID 651548);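 note: dimethyl H3K27 on biotinylated H3 21-44 peptide detected by antibody; plate controls were median neutral control wells for no effect and median positive control wells for full effect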
runParameters: DELFIA TRF, 1 h, at 12.5 µM, stronger effect = higher value
The campaign covered roughly 57,000 compounds. About 200 (0.35%) were called active. This excerpt belongs to a sample that is enriched for actives.
measurementLabel: inhibition (%)
Hi! Could you send only the number? It should be in %, unit omitted.

Quick note, inhibition for "COc1cccc(-c2ccc3c(c2)O[C@H](CN(C)C(=O)c2ccccc2F)[C@@H](C)CN([C@@H](C)CO)S3(=O)=O)c1" landed at 0.0695

Kindly note the recorded inhibition for "CN(C)CC(=O)Nc1ccc2c(c1)[C@H]1C[C@@H](CC(=O)NCc3ccccn3)O[C@@H](CO)[C@H]1O2" , which is -17

"COc1cccc(NC(=O)Nc2ccc3c(c2)C(=O)N(C)C[C@@H](OC)[C@H](C)CN(CC2CC2)[C@H](C)CO3)c1" has a reported inhibition of -8.45

response.value for "O=C(C[C@H]1C=C[C@@H](NC(=O)c2ccc(F)cc2)[C@@H](CO)O1)NCCc1ccncc1" (field: inhibition) = -4.57
